# assayed target: Neprilysin (Oryctolagus cuniculus, UniProt P08049)
# Sequence (P08049 whole entry): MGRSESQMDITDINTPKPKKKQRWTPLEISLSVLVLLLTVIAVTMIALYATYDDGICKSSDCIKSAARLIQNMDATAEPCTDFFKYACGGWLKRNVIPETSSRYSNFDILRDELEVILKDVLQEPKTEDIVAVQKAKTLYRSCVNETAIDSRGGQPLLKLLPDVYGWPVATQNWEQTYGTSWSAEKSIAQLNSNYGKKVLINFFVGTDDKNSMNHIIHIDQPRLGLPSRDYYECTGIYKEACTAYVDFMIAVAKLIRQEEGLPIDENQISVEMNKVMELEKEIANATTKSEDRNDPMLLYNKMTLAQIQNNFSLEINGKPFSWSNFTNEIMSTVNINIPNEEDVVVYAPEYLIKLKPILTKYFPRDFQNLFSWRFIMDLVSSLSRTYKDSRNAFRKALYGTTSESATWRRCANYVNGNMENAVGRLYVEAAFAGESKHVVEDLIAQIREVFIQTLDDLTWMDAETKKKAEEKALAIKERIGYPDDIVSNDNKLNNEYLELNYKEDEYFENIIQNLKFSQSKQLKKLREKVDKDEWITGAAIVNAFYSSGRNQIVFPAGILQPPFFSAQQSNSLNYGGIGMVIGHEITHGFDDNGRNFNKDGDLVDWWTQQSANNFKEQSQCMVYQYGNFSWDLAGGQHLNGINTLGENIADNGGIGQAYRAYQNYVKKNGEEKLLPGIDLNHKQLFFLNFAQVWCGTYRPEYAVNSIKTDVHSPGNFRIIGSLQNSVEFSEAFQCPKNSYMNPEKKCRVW
# method summary: In vitro inhibitory activity against neutral endopeptidase (NEP)
assay readout: IC50 (nM)

INSERT INTO measurements (molecule, value_modifier, measured_value) VALUES
  ('CSCC[C@@H](NC(=O)[C@H](CS)CCc1ccccc1)C(=O)O', '>', 300),
  ('CCSCC[C@@H](NC(=O)[C@H](CS)Cc1ccccc1)C(=O)O', '=', 31),
  ('Cc1ccc(CSC[C@@H](NC(=O)[C@H](CS)Cc2ccc(-c3ccccc3)cc2)C(=O)O)cc1', '=', 290),
  ('CSCC[C@@H](NC(=O)[C@@H](CS)Cc1ccccc1)C(N)=O', '=', 76),
  ('Cc1ccc(CSC[C@@H](NC(=O)[C@H](CS)Cc2cccc3ccccc23)C(=O)O)cc1', '=', 39),
  ('CCCC(CS)C(=O)N[C@H](CCSC)C(=O)O (stereo partly specified)', '=', 2.5),
  ('O=C(N[C@H](CSCc1ccccc1)C(=O)O)[C@H](CS)Cc1ccccc1', '=', 32),
  ('CSCC[C@@H](NC(=O)[C@@H](CS)CCc1ccccc1)C(=O)O', '=', 60),
  ('CCOC(=O)CNC(=O)[C@@H](CCSC)NC(=O)C(CSC(C)=O)Cc1ccccc1 (stereo partly specified)', '>', 300),
  ('CSCC[C@@H](NC(=O)[C@H](CS)Cc1ccccc1)C(=O)O', '=', 3.5),
  ('Cc1ccc(CSC[C@@H](NC(=O)[C@H](CS)Cc2ccccc2)C(=O)O)cc1', '=', 20),
  ('Cc1ccc(CSC[C@@H](NC(=O)[C@H](CS)Cc2ccccc2)C(=O)O)cc1C', '=', 541),
  ('O=C(N[C@H](CSCCc1ccccc1)C(=O)O)[C@@H](CS)Cc1ccccc1', '=', 110),
  ('CSCC[C@@H](NC(=O)C(CSC(C)=O)Cc1ccccc1)C(=O)N1CCOCC1 (stereo partly specified)', '>', 300),
  ('Cc1ccc(CSC[C@@H](NC(=O)[C@@H](CS)Cc2ccccc2)C(=O)O)cc1', '=', 11),
  ('CSCC[C@@H](NC(=O)[C@H](CS)Cc1ccccc1)C(N)=O', '=', 94),
  ('CSCC[C@@H](NC(=O)[C@@H](CS)Cc1ccccc1)C(=O)O', '=', 6.5),
  ('CSCC[C@@H](NC(=O)C1(CS)CCCC1)C(=O)O', '=', 3.5),
  ('Cc1ccc(CSC[C@@H](NC(=O)[C@@H](CS)Cc2cccc3ccccc23)C(=O)O)cc1', '=', 2),
  ('CC(C)(C)SC[C@@H](NC(=O)[C@H](CS)Cc1ccccc1)C(=O)O', '=', 231),
  ('COc1ccc(CSC[C@@H](NC(=O)[C@@H](CS)Cc2ccccc2)C(=O)O)cc1', '=', 2);

----------
# Tested on: Rattus norvegicus
# method summary: Tested for in vivo Antihypertensive activity in DOCA rat by giving peroral dose of 10 mg/kg
# Format: functional
# condition details: route oral
assay readout: Delta blood pressure (mmHg)

INSERT INTO assay_data (compound, measured_value) VALUES
  ('CSCC[C@@H](NC(=O)[C@H](CS)Cc1ccccc1)C(=O)O', 30),
  ('CSCC[C@@H](NC(=O)C(CSC(C)=O)Cc1ccccc1)C(=O)NCCO (stereo not given in full)', 24),
  ('CSCC[C@@H](NC(=O)[C@@H](CS)Cc1ccccc1)C(=O)O', 31),
  ('Cc1ccc(CSC[C@@H](NC(=O)[C@H](CS)Cc2ccccc2)C(N)=O)cc1', 46),
  ('CCSC[C@@H](NC(=O)[C@@H](CS)Cc1ccccc1)C(=O)O', 61),
  ('CSCC[C@@H](NC(=O)[C@@H](CS)CCc1ccccc1)C(=O)O', 18),
  ('CCOC(=O)CNC(=O)[C@@H](CCSC)NC(=O)C(CSC(C)=O)Cc1ccccc1 (stereo not given in full)', 0),
  ('CC(=O)SC[C@H](Cc1ccccc1)C(=O)N[C@H](CSCc1ccc(C)cc1)C(N)=O', 0),
  ('CCOC(=O)[C@@H](CCSC)NC(=O)C1(CSC(C)=O)CCCC1', 27),
  ('CCOC(=O)[C@@H](CCSC)NC(=O)[C@@H](CSC(C)=O)Cc1ccccc1C', 70);
